meta.source: patent US8273774B2

Molecular target: recombinant Human Phosphodiesterase B2 (PDE4B2) (Homo sapiens)
Sequence (Q07343 1-564 isoform Q07343-2): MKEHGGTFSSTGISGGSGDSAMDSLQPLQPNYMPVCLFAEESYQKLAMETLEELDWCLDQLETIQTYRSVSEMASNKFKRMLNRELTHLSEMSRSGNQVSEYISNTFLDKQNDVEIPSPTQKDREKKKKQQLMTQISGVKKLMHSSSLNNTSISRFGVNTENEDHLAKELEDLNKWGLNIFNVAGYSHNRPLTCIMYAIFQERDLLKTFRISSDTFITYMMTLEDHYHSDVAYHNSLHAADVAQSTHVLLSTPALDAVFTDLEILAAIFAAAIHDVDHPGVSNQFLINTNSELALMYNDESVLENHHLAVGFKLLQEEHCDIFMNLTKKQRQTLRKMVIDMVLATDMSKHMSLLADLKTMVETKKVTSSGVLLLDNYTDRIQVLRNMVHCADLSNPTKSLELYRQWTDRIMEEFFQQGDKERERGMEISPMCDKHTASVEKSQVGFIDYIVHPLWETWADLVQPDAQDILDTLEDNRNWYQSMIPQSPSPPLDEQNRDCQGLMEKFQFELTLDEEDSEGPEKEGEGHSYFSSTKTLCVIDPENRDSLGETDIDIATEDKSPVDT
Experiment: Human Phosphodiesterase B2 Radiometric Assay
Assay type: biochemical
Conditions: 0.1 μg/mL recombinant PDE4B2; preincubated at 30 C for 30 min; [3H]cyclic AMP 8 nM, stopped after 20 min; yttrium silicate SPA beads; read-out: PDE4B2 pIC50 (converted)
endpoint label: IC50 (nM)

Look over these answered cases.
- molecule: "Cc1cccc2nc(C(=O)N[C@H]3CC[C@@H](NC(=O)c4cc(F)cnc4Oc4cccc(-c5ccc(O)c(CN6C[C@@H](C)N[C@@H](C)C6)c5)c4)CC3)cn12 [Example 85]"
  recorded value: 0.0631
- molecule: "CC(C)c1nc(C(=O)N[C@H]2CC[C@@H](NC(=O)c3cc(F)cnc3Oc3cccc(-c4ccc(O)cc4CN4CCOCC4)c3)CC2)cs1 [Example 39]"
  recorded value: 0.02
- molecule: "C[C@@H]1CN(Cc2ccc(-c3cccc(Oc4ncc(F)cc4C(=O)N[C@H]4CC[C@@H](NC(=O)c5cc6ccccn6n5)CC4)c3)cc2)C[C@H](C)N1 [Example 71]"
  recorded value: 0.0251
- molecule: "C[C@@H]1CN(Cc2ccc(-c3cccc(Oc4ncc(F)cc4C(=O)N[C@H]4CC[C@@H](NC(=O)c5cc6n(n5)CCCC6)CC4)c3)cc2)C[C@H](C)N1 [Example 113]"
  recorded value: 0.0501
- molecule: "CN(C)Cc1cc(O)ccc1-c1cccc(Oc2ncc(F)cc2C(=O)N[C@H]2CC[C@@H](NC(=O)c3cn4cc(F)ccc4n3)CC2)c1 [Example 12]"
  recorded value: 0.0501

A. C[C@@H]1CN(CCc2ccc(-c3cccc(Oc4ncc(F)cc4C(=O)N[C@H]4CC[C@@H](NC(=O)c5cc6n(n5)CCCC6)CC4)c3)cc2)C[C@H](C)N1 [Example 162]
B. C[C@@H]1CN(Cc2cccc(-c3cccc(Oc4ncc(F)cc4C(=O)N[C@H]4CC[C@@H](NC(=O)c5cc6ccccn6n5)CC4)c3)c2)C[C@H](C)N1 [Example 151]
Hi there, can you help? I need to know whether A or B has lower measured IC50. Write down the label of the entry you select.
A
(A: 0.0398 nM, B: 0.0631 nM)

I. C[C@H]1COCCN1Cc1cc(CN2CCCN(CCO)CC2)ccc1-c1cccc(Oc2ncc(F)cc2C(=O)N[C@H]2CC[C@@H](NC(=O)c3cccc4[nH]cnc34)CC2)c1 [Example 180]
II. C[C@@H]1CN(Cc2ccc(-c3cccc(Oc4ncc(F)cc4C(=O)N[C@H]4CC[C@@H](NC(=O)c5csc(CO)n5)CC4)c3)cc2)C[C@H](C)N1 [Example 70]
Could you kindly indicate whether I or II has the higher IC50 value? Write down the label of the entry you select.
II
(II: 0.0794 nM, I: 0.0158 nM)

A. O=C(N[C@H]1CC[C@@H](NC(=O)c2cc(F)cnc2Oc2cccc(-c3ccc(O)cc3CN3CCOCC3)c2)CC1)c1ccc(O)cc1 [Example 31]
B. O=C(N[C@H]1CC[C@@H](NC(=O)c2cc(F)cnc2Oc2cccc(-c3ccc(CN4CCSCC4)cc3CN3CCOCC3)c2)CC1)c1csc(CO)n1 [Example 170]
Could you kindly indicate whether A or B has the higher IC50 value? Write down the label of the entry you select.
A
(A: 0.501 nM, B: 0.0501 nM)
